SUBJECT_OF_TEST: T1, RBFOX1 RRM RbFoxmut (Fox-RRM*) (Homo sapiens, UniProt Q9NWB1 109-208, R118D;E147R;N151S;E152T)
T1 sequence: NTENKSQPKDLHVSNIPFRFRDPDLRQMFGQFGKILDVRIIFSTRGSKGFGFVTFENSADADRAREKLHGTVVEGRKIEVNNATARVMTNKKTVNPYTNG
MEASUREMENT_PROTOCOL: EMSA; HiTS-Eq, 1 nM pool, 10 min; buffer printed only for the single-RNA assays: 10 mM Tris pH 7.5, 150 mM NaCl, 3.4 mM EDTA, 0.001% NP-40, 30 C
SETTINGS: tags: His6 N-terminal (pET28a); label: 5' 32P
In all, about 16,000 sequences were measured (“ka relative to ugcaugu”: median about 0.096, highest 2% from about 0.35 on). The full list was thinned out, with the highest values kept by preference.
Consider the following binders and their measured binding signal readings.

INSERT INTO results (binder, outcome_measure, endpoint_value) VALUES
  ('UCCCAUG (DNA:RNA) RNA: GGGAGACCGGAAUUCAGAUUGUCCUCCCAUGUUAAAUCCCGUCGUAGCCACCA DNA 1: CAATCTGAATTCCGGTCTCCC DNA 2: TGGTGGCTACGACGGGATT', 'binding signal', '0.0994 KA relative to UGCAUGU'),
  ('UAACUCA (DNA:RNA) RNA: GGGAGACCGGAAUUCAGAUUGUCCUAACUCAUUAAAUCCCGUCGUAGCCACCA DNA 1: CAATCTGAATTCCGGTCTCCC DNA 2: TGGTGGCTACGACGGGATT', 'binding signal', '0.1 KA relative to UGCAUGU'),
  ('GGAGAUC (DNA:RNA) RNA: GGGAGACCGGAAUUCAGAUUGUCCGGAGAUCUUAAAUCCCGUCGUAGCCACCA DNA 1: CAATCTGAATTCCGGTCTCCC DNA 2: TGGTGGCTACGACGGGATT', 'binding signal', '0.155 KA relative to UGCAUGU');

Now consider a different binder.
Tell me the measured binding signal of CGGUAUC (DNA:RNA) RNA: GGGAGACCGGAAUUCAGAUUGUCCCGGUAUCUUAAAUCCCGUCGUAGCCACCA DNA 1: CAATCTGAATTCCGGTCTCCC DNA 2: TGGTGGCTACGACGGGATT , please.
0.245 KA relative to UGCAUGU
